The listing below reports AC50 for molecules tested on Histamine H3 receptor (Homo sapiens). Also: assay procedure not described here.
Sequence (Q9Y5N1 whole entry): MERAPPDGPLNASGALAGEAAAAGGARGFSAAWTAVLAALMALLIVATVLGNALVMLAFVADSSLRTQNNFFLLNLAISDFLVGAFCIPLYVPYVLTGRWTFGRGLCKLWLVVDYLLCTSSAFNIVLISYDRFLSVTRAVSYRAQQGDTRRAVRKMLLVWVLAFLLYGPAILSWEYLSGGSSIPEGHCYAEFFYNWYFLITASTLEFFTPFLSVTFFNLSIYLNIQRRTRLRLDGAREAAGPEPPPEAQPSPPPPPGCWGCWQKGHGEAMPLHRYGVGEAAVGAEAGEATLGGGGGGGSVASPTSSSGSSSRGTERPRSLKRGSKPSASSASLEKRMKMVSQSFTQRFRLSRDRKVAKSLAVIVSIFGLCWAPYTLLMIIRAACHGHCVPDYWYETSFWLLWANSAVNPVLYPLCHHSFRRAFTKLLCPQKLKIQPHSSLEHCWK

Below, 4 molecules whose answers are already recorded.
- Molecule: "Cc1oc(=O)oc1CN1CCN(c2cc3c(cc2F)c(=O)c(C(=O)O)c2n3C(C)S2)CC1 (stereo not given) [PRULIFLOXACIN]"
  Result value: "> 30 µM"
- Molecule: "Nc1ccc2cc3ccc(N)cc3nc2c1 [PROFLAVINE]"
  Result value: "16.3 µM"
- Molecule: "C=CCN1C[C@H](C(=O)N(CCCN(C)C)C(=O)NCC)C[C@@H]2c3cccc4[nH]cc(c34)C[C@H]21 [CABERGOLINE]"
  Result value: "> 30 µM"
- Molecule: "CCC1=C(C)CN(C(=O)NCCc2ccc(S(=O)(=O)NC(=O)N[C@H]3CC[C@H](C)CC3)cc2)C1=O [GLIMEPIRIDE]"
  Result value: "> 30 µM"

Next up:
q: Recorded AC50 of C=CCc1ccccc1OCC(O)CNC(C)C (stereo not given) [ALPRENOLOL] , please.
a: > 0.3 µM

Just for reference, ChEMBL document CHEMBL5291721 is where these values come from.
